Biological target: recombinant human transglutaminase 2 (Homo sapiens, UniProt P21980)
Sequence (P21980 whole entry): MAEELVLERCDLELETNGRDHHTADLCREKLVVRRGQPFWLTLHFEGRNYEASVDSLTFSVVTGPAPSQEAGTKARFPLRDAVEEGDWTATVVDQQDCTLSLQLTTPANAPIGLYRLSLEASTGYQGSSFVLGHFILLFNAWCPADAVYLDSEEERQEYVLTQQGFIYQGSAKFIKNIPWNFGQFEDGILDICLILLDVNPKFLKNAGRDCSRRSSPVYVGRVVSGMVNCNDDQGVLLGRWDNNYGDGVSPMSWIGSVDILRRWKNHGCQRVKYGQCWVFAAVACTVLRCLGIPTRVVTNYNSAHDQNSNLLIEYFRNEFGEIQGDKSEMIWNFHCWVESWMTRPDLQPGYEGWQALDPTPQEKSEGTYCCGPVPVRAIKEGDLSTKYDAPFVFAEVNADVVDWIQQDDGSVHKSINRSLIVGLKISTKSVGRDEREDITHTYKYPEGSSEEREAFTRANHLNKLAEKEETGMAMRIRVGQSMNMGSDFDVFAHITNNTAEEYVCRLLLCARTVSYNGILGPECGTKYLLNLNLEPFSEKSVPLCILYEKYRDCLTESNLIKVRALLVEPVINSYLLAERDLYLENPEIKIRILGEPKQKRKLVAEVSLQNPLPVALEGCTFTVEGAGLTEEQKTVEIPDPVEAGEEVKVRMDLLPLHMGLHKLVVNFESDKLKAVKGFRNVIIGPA
Assay: Transglutaminase assay (dansylcadaverine incorporation into dimethylcasein, DCC-assay)
Settings: recombinant human TG2 10 nM, dansylcadaverine/dimethylcasein, 37° C.
pIC50: −log10 of the molar value.
Each record here notes measured pIC50.

Some solved cases for reference:
- COC(=O)/C=C/CC[C@H](NC(=O)c1snnc1C)C(=O)Nc1cccn(CC(=O)N[C@@H]2C[C@@H]3CC[C@H]2C3)c1=O: > 7.60
- Cc1oc(Br)cc1C(=O)N[C@@H](CC/C=C/C(=O)Nc1ccccc1)C(=O)Nc1cccn(CC(=O)NC23CC(C2)C3)c1=O: 6.60 to 7.60

Return pIC50 (reported value) for this compound: COC(=O)/C=C/CC[C@H](NC(=O)c1oc2ccccc2c1C)C(=O)Nc1cccn(CC(=O)NC2C3CCC2CC3)c1=O (stereo partly shown)
> 7.60

Fill in reported pIC50 for this entry: COC(=O)/C=C/CC[C@H](NC(=O)c1oc2ccccc2c1C)C(=O)Nc1cccn(CC(=O)NC[C@@H]2CC[C@H]3C[C@@H]2C3(C)C)c1=O
6.60 to 7.60

// fetch pIC50 given entry COC(=O)/C=C/CC[C@H](NC(=O)c1csc(Br)c1)C(=O)Nc1cccn(CC(=O)NC2C3CC4CC(C3)CC2C4)c1=O (stereo partly shown)
> 7.60

Please supply the value of reported pIC50 for the item COC(=O)/C=C/CC[C@H](NC(=O)c1oc2ccccc2c1C)C(=O)Nc1cccn(CC(=O)NC23CC4CC(C2)C(F)(F)C(C4)C3)c1=O
6.60 to 7.60

Report pIC50, nothing else, for this compound: COC(=O)/C=C/CC[C@H](NC(=O)c1csc2ccccc12)C(=O)Nc1cccn(CC(=O)NC2C3CC4CC(C3)CC2C4)c1=O (stereo partly shown)
6.60 to 7.60

Respond only with pIC50 recorded for COC(=O)/C=C/CC[C@H](NC(=O)c1sc(C(F)(F)F)nc1C)C(=O)Nc1cccn(CC(=O)N[C@H]2C[C@H]3CC[C@]2(C)C3(C)C)c1=O
> 7.60

Entry COC(=O)/C=C/CC[C@H](NC(=O)c1ccc2occc2c1)C(=O)Nc1cccn(CC(=O)NC2C3CC4CC2CC(NC(C)=O)(C4)C3)c1=O (stereo partly shown) needs its pIC50 filled in; supply it.
6.60 to 7.60

Give me measured pIC50, please, for this compound: COC(=O)/C=C/CC[C@H](NC(=O)c1cc(Cl)sc1Cl)C(=O)Nc1cccn(CC(=O)NC23CC4(C)CC(C)(CC(C)(C4)C2)C3)c1=O
> 7.60

Please indicate pIC50 recorded for COC(=O)/C=C/CC[C@H](NC(=O)c1ccnn1C)C(=O)Nc1cccn(CC(=O)NC2C3CC4CC(C3)CC2C4)c1=O (stereo partly shown)
> 7.60

State its pIC50: C=CCNC(=O)/C=C/CC[C@H](NC(=O)c1nccc2cnccc12)C(=O)Nc1cccn(CC(=O)NC23CC(C2)C3)c1=O
5.82 to 6.60

Please list pIC50 recorded for the compound COC(=O)/C=C/CC[C@H](NC(=O)c1snnc1CO)C(=O)Nc1cccn(CC(=O)NC2C3CC4CC(C3)CC2C4)c1=O (stereo partly shown)
5.82 to 6.60

---

Measured Papp values are reported for all entries that follow.
Test: Caco-2 permeability assay (CacoReady kit)
Type: in vitro ADME
Settings: human

The following compounds have reported results that may help.
• COC(=O)/C=C/CC[C@H](NC(=O)c1ncn(C)n1)C(=O)Nc1cccn(CC(=O)NC2C3CC4CC(C3)CC2C4)c1=O (some centres unmarked) = 1 to 10 ×10⁻⁶ cm/s
• COC(=O)/C=C/CC[C@H](NC(=O)c1ncns1)C(=O)Nc1cccn(CC(=O)NC23CC(C2)C3)c1=O = < 1 ×10⁻⁶ cm/s
• COC(=O)/C=C/CC[C@H](NC(=O)c1oc2ccccc2c1C)C(=O)Nc1cccn(CC(=O)NC23CCC(CC2)C3)c1=O = 1 to 10 ×10⁻⁶ cm/s
• COC(=O)/C=C/CC[C@H](NC(=O)[C@H]1CCNC1)C(=O)Nc1cccn(CC(=O)NC2C3CC4CC(C3)CC2C4)c1=O (some centres unmarked) = 1 to 10 ×10⁻⁶ cm/s
• COC(=O)/C=C/CC[C@H](NC(=O)c1sc(C(F)(F)F)nc1C)C(=O)Nc1cccn(CC(=O)N[C@@H]2C[C@@H]3CC[C@H]2C3)c1=O = 1 to 10 ×10⁻⁶ cm/s
• COC(=O)/C=C/CC[C@H](NC(=O)c1cnnn1C)C(=O)Nc1cccn(CC(=O)N[C@@H]2C[C@H]3CC[C@@H]2C3)c1=O = 1 to 10 ×10⁻⁶ cm/s

Look up and report measured Papp for this entry: COC(=O)/C=C/CC[C@H](NC(=O)c1cncn1C)C(=O)Nc1cccn(CC(=O)NC23CC4CC(C)(CC(C)(C4)C2)C3)c1=O
< 1 ×10⁻⁶ cm/s

Supply reported Papp belonging to this compound: COC(=O)/C=C/CC[C@H](NC(=O)c1cc(Cl)sc1Cl)C(=O)Nc1cccn(CC(=O)N[C@@H]2C[C@H]3CC[C@@H]2C3)c1=O
1 to 10 ×10⁻⁶ cm/s

// fetch Papp given entry COC(=O)/C=C/CC[C@H](NC(=O)c1cncnc1C)C(=O)Nc1cccn(CC(=O)NC2C3CC4CC2CC(C(=O)O)(C4)C3)c1=O (some centres unmarked)
< 1 ×10⁻⁶ cm/s

Find the measured Papp of COC(=O)/C=C/CC[C@H](NC(=O)c1sc(C(F)(F)F)nc1C)C(=O)Nc1cccn(CC(=O)NC23CC4(C)CC(C)(CC(C)(C4)C2)C3)c1=O and report it.
1 to 10 ×10⁻⁶ cm/s

Return reported Papp. Input compound: COC(=O)/C=C/CC[C@H](NC(=O)[C@@H]1CCCCN1)C(=O)Nc1cccn(CC(=O)NC2C3CC4CC(C3)CC2C4)c1=O (some centres unmarked)
< 1 ×10⁻⁶ cm/s

---

IC50 values, listed per item
Target: recombinant human transglutaminase 2 (Homo sapiens, UniProt P21980)
Test: Transglutaminase assay (dansylcadaverine incorporation into dimethylcasein, DCC-assay)
Conditions: recombinant human TG2 10 nM, dansylcadaverine/dimethylcasein, 37° C.

• COC(=O)/C=C/CC[C@H](NC(=O)c1snnc1C)C(=O)Nc1cccn(CC(=O)NC2C3CC4CC(C3)CC2C4)c1=O (stereo partly shown) = < 25 nM
• Cn1ccnc1C(=O)N[C@@H](CC/C=C/C(=O)c1ccccc1)C(=O)Nc1cccn(CC(=O)NC23CC(C2)C3)c1=O = 250 to 1500 nM
• COC(=O)/C=C/CC[C@H](NC(=O)c1oc2ccccc2c1C)C(=O)Nc1cccn(CC(=O)NC23CC4CC(C2)CC(C(F)(F)F)(C4)C3)c1=O = 25 to 250 nM

Answer with the recorded IC50 for the compound listed here: COC(=O)/C=C/CC[C@H](NC(=O)c1oc2ccccc2c1C)C(=O)Nc1cccn(CC(=O)NC2C3CC4CC2CC(F)(C4)C3)c1=O (stereo partly shown)
< 25 nM

Please report IC50 for the following compound: COC(=O)/C=C/CC[C@H](NC(=O)c1cc(Cl)sc1Cl)C(=O)Nc1cccn(CC(=O)N[C@@H]2C[C@@H]3CC[C@H]2C3)c1=O
< 25 nM

# return recorded IC50 for entry COC(=O)/C=C/CC[C@H](NC(=O)c1cnsn1)C(=O)Nc1cccn(CC(=O)NC23CC(C2)C3)c1=O
25 to 250 nM

---

Assay: Caco-2 permeability assay (CacoReady kit)
Type: in vitro ADME
Conditions: human
measured-metric: Papp

- COC(=O)/C=C/CC[C@H](NC(=O)c1oc2ccccc2c1C)C(=O)Nc1cccn(CC(=O)NC2(C#N)C3CC4CC(C3)CC2C4)c1=O (stereo partly drawn): < 1 ×10⁻⁶ cm/s

Report Papp, nothing else, for this molecule: CCn1c(C(=O)N[C@@H](CC/C=C/C(=O)NC2CCCCC2)C(=O)Nc2cccn(CC(=O)NC34CC(C3)C4)c2=O)cc2ccccc21
1 to 10 ×10⁻⁶ cm/s

Tell me its Papp given COC(=O)/C=C/CC[C@H](NC(=O)c1oc2ccccc2c1C)C(=O)Nc1cccn(CC(=O)NC23CC4(C)CC(C)(CC(C)(C4)C2)C3)c1=O as the entry.
1 to 10 ×10⁻⁶ cm/s

Provide measured Papp value, entry: COC(=O)/C=C/CC[C@H](NC(=O)c1cnnn1C)C(=O)Nc1cccn(CC(=O)N[C@H]2C[C@H]3CC[C@]2(C)C3(C)C)c1=O
< 1 ×10⁻⁶ cm/s

Give recorded Papp. COC(=O)/C=C/CC[C@H](NC(=O)c1oc2ccccc2c1C)C(=O)Nc1cccn(CC(=O)NC2C3CCC2CC3)c1=O (stereo partly drawn)
1 to 10 ×10⁻⁶ cm/s

Respond only with Papp recorded for COC(=O)/C=C/CC[C@H](NC(=O)c1oc2ccccc2c1C)C(=O)Nc1cccn(CC(=O)NC23CC4CC(C)(CC(C)(C4)C2)C3)c1=O
1 to 10 ×10⁻⁶ cm/s
